# TEST SYSTEM: human TLR8 (Homo sapiens)
# Sequence (Q9NR97 27-1041): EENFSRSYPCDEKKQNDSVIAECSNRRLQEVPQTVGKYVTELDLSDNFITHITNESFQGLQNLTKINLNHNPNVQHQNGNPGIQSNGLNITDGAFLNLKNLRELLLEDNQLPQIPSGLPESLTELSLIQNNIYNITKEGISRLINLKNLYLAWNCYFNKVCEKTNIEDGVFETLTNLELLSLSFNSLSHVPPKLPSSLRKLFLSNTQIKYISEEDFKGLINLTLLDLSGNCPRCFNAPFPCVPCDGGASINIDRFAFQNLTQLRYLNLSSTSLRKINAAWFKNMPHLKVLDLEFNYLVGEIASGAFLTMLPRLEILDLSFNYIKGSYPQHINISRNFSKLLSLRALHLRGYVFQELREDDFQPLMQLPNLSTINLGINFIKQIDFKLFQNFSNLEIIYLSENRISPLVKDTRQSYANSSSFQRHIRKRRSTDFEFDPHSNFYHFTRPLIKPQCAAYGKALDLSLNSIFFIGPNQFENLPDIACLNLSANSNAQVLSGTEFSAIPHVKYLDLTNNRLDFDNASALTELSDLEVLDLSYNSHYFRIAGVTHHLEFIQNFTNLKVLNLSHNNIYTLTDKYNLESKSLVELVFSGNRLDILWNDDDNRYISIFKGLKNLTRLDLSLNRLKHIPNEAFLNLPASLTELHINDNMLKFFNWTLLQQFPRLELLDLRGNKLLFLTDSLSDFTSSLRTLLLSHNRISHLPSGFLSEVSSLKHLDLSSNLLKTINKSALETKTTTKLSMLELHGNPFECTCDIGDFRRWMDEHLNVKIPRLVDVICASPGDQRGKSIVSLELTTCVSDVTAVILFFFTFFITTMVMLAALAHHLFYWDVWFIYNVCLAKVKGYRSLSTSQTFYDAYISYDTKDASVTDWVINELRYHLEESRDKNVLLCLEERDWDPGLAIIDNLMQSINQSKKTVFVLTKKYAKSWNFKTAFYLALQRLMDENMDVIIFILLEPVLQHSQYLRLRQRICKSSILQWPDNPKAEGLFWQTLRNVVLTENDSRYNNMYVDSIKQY
# ASSAY EXPLANATION: TLR8 inhibition reporter assay (HEK-Blue SEAP)
# APPLIED CONDITIONS: HEK-Blue cells overexpressing human TLR8, stimulated with R848 15.9 μM, 22 hour incubation
Strictly below 0.9 nM in IC50: Criterion met. Otherwise: Criterion not met.

Worked set:
COc1cc(-c2cc(C)c3cn[nH]c3c2)cn2ncnc12 : Criterion not met
Cc1cc2c(OC3CCC(N(C)C)CC3)n[nH]c2cc1-c1cc(C)c2ncnn2c1 (single isomer, unassigned) [Example 182] : Criterion not met
COc1cc(-c2ccc3c(C4CCNCC4)c[nH]c3c2)cn2ncnc12 : Criterion not met
Cc1cc(-c2cc3[nH]nc(C4CCC(N5CC6(CCO6)C5)CC4)c3cc2C(C)C)cn2ncnc12 (stereo not drawn) [Example 155] : Criterion met
Cc1cc2c(OC3CCN(C(=O)CN(C)C)CC3)n[nH]c2cc1-c1cc(C)c2ncnn2c1 : Criterion not met
Cc1cc(-c2ccc3c(CCNC4CCNCC4)c[nH]c3c2)cn2ncnc12 : Criterion not met

Enquiry: Is IC50 of "CCc1cc(-c2cc(C)c3ncnn3c2)cc2[nH]nc(OC3CCN(CC(=O)N(C)C)CC3)c12" strictly below 0.9 nM?
Return: Criterion not met

Enquiry: Is IC50 of Cc1cc2c(C3CCC(N(C)C4COC4)CC3)n[nH]c2cc1-c1cc(C)c2ncnn2c1 (single isomer, unassigned) [Example 32] strictly below 0.9 nM?
Return: Criterion met

Enquiry: Is IC50 of CNC1CCC(c2n[nH]c3cc(-c4cc(C)c5ncnn5c4)c(C)cc23)CC1 (stereo not drawn) strictly below 0.9 nM?
Return: Criterion not met

Enquiry: Is IC50 of CCc1cc(-c2cc(C)c3ncnn3c2)cc2[nH]nc(OC3CCC(N(C)C)CC3)c12 (single isomer, unassigned) [Example 169] strictly below 0.9 nM?
Return: Criterion met

Enquiry: Is IC50 of COc1cc(-c2cc3[nH]nc(C4CCCNC4)c3cc2C)cn2ncnc12 (stereo not drawn) strictly below 0.9 nM?
Return: Criterion met

Enquiry: Is IC50 of Cc1cc(-c2cc3[nH]nc(C4CCC(N5CC6(COC6)C5)CC4)c3cc2C(C)C)cn2ncnc12 (single isomer, unassigned) [Example 129] strictly below 0.9 nM?
Return: Criterion met

Enquiry: Is IC50 of "Cc1cc(-c2cc(C)c3ncnn3c2)cc2[nH]nc(C3CCN(CC(=O)N(C)C)CC3)c12" strictly below 0.9 nM?
Return: Criterion not met

Enquiry: Is IC50 of "Cc1cc(-c2cc(C)c3ncnn3c2)cc2[nH]nc(OC3CCN(Cc4cn(C)nn4)CC3)c12" strictly below 0.9 nM?
Return: Criterion not met
